All figures here come from ChEMBL document CHEMBL2203042.

Target or system UniProt:P61169: recorded Ki listed per item.
Sequence (P61169 whole entry): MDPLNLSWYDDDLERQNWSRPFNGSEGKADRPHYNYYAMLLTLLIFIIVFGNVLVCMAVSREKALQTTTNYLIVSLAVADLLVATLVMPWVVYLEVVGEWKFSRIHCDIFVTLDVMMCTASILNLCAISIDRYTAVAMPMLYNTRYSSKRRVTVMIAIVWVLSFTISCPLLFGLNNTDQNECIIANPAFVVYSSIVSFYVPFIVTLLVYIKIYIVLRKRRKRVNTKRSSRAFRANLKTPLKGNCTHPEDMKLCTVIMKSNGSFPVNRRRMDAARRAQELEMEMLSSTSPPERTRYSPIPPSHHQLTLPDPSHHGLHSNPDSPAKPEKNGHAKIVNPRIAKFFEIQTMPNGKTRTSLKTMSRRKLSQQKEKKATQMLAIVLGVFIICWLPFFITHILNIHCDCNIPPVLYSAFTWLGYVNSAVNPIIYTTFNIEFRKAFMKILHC
Record the value in nM, omitting the unit from your answer.

Worked cases, Ki given:
CCCN(CCCCCCCCCCCCN(CCC)[C@H]1CCc2c(O)cccc2C1)[C@H]1CCc2c(O)cccc2C1: 11
CCCCCCCCCN(CCC)[C@H]1CCc2c(O)cccc2C1: 69
CCCN(CCCCCN(CCC)[C@H]1CCc2c(O)cccc2C1)[C@H]1CCc2c(O)cccc2C1: 75

Note: attention shifts to another entry.
Prompt: Quickly give me recorded Ki for CCCN(CCCCCCCCCc1ccccc1)[C@H]1CCc2c(O)cccc2C1
Completion: 140

====

- Species on record: Rattus norvegicus
- test summary: Selectivity ratio of Ki for rat cloned dopamine D2L receptor to Ki for rat cloned dopamine D3 receptor
Answer false (0) if Ratio Ki is under 9, and true (1) if it is 9 or more.

CCCN(CCCCCN(CCC)[C@H]1CCc2c(O)cccc2C1)[C@H]1CCc2c(O)cccc2C1: true (1)
CCCN(CCN(CCC)[C@H]1CCc2c(O)cccc2C1)[C@H]1CCc2c(O)cccc2C1: true (1)
CCCN(CCCCCCCN(CCC)[C@H]1CCc2c(O)cccc2C1)[C@H]1CCc2c(O)cccc2C1: false (0)
CCCN(CCCCCCN(CCC)[C@H]1CCc2c(O)cccc2C1)[C@H]1CCc2c(O)cccc2C1: false (0)
CCCN(CCCCCCCCCc1ccccc1)[C@H]1CCc2c(O)cccc2C1: false (0)
CCCN(CCCCN(CCC)[C@H]1CCc2c(O)cccc2C1)[C@H]1CCc2c(O)cccc2C1: true (1)

Prompt: Dear colleague, could you confirm whether CCCN(CCCCCCCCCCCCCCN(CCC)[C@H]1CCc2c(O)cccc2C1)[C@H]1CCc2c(O)cccc2C1 has Ratio Ki at or above 9?
Completion: false (0)

Prompt: Dear colleague, could you confirm whether CCCN(CCCCCCCCCCCCN(CCC)[C@H]1CCc2c(O)cccc2C1)[C@H]1CCc2c(O)cccc2C1 has Ratio Ki at or above 9?
Completion: false (0)

Prompt: Dear colleague, could you confirm whether CCCCCCCCCN(CCC)[C@H]1CCc2c(O)cccc2C1 has Ratio Ki at or above 9?
Completion: true (1)

====

- system under test: UniProt P19020
- Sequence (P19020 whole entry): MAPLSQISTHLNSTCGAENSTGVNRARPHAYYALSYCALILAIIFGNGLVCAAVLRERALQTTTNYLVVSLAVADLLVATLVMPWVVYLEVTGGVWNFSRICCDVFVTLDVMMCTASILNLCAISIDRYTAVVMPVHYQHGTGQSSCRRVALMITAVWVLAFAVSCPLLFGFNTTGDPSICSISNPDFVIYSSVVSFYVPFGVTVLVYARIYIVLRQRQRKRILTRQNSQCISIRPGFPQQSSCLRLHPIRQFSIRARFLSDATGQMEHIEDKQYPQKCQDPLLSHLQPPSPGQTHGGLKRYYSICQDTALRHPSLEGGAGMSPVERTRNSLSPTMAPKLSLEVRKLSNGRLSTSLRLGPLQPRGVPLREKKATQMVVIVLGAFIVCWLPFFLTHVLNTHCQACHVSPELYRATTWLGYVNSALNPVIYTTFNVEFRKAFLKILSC
pKi: −log10 of the molar value.
Answer n if pKi is under 8, and y if it is 8 or more.

CCCN(CCCCCCCN(CCC)[C@H]1CCc2c(O)cccc2C1)[C@H]1CCc2c(O)cccc2C1: y
CCCN(CCCCCN(CCC)[C@H]1CCc2c(O)cccc2C1)[C@H]1CCc2c(O)cccc2C1: y
CCCN(CCCCCCN(CCC)[C@H]1CCc2c(O)cccc2C1)[C@H]1CCc2c(O)cccc2C1: y

# next compound below
Prompt: Dear colleague, could you confirm whether CCCN(CCCCCCCCCCCCCCN(CCC)[C@H]1CCc2c(O)cccc2C1)[C@H]1CCc2c(O)cccc2C1 has pKi at or above 8?
Completion: n
